Experiment: Microsome stability, rat liver microsomes
Type: in vitro ADME
Settings: read-out: Microsome stability t1/2 (R)
assayEndpoint: half-life (min)

Here's what some known entries look like.
>  <molecule>
Cn1cc(-n2cnc3c(NCc4nc5cc(Cl)c(Cl)cc5[nH]4)nc(N4CCOCC4)nc32)cn1 [Compound 5]

>  <half-life (min)>
16

$$$$
>  <molecule>
Cc1cc(-n2cnc3c(NCc4nc5c(F)c(F)ccc5[nH]4)nc(N4CCOCC4)nc32)no1 [Compound 3]

>  <half-life (min)>
11

$$$$
>  <molecule>
Cn1cc(-n2cnc3c(NCc4nc5cc(Cl)c(Cl)cc5[nH]4)nc(N4CCOC[C@H]4CO)nc32)cn1 [Compound 7]

>  <half-life (min)>
25

$$$$
>  <molecule>
Cn1cc(-n2cnc3c(NCc4nc5cc(F)c(F)cc5[nH]4)nc(N4CCOCC4)nc32)cn1 [Compound 2]

>  <half-life (min)>
18

$$$$

a = Cn1cc(-n2cnc3c(NCc4nc5c(F)c(F)ccc5[nH]4)nc(N4CCOCC4)nc32)cn1 [Compound 1]
b = Fc1ccc2[nH]c(CNc3nc(N4CCOCC4)nc4c3ncn4-c3cscn3)nc2c1F [Compound 4]
Input: Pick one: a or b . Which has the bigger half-life number? Label of pick, please.
Output: a

The reported measurements were obtained from patent US11666578B2.
